Measured IC50, listed per entry for reference.
TARGET DESC: human MRGPR X4 (Homo sapiens)
Construct: expressed in transfected cells
ASSAY PROCEDURE: MRGPR X4 antagonist activity, IP-One Gq HTRF assay in stably transfected HEK cells
Format: cell-based

Worked cases, answers included:
compound="COc1cccc(Cn2nc(C(=O)NCCc3cccnc3)c3ccccc32)c1 [Compound 101]" recorded_measurement="1000 to 2500 nM"
compound="Cc1cccc(Cn2cc(C(=O)NCCc3cccnc3)c3ccccc32)c1 [Compound 201]" recorded_measurement="1000 to 2500 nM"
compound="O=C(NCCn1nnc2ccccc21)c1nn(Cc2ccc(Cl)cc2)c2ccccc12 [Compound 361]" recorded_measurement="< 100 nM"
compound="O=C(NCCc1nnc2ccccn12)c1nn(Cc2cccc3c2CCC3)c2ccccc12 [Compound 545]" recorded_measurement="100 to 500 nM"
compound="Cc1ccc2c(C(=O)NCCc3nnc4ccccn34)nn(Cc3ccc(Cl)cc3)c2c1 [Compound 549]" recorded_measurement="100 to 500 nM"
compound="O=C(O)c1nn(Cc2ccc(Cl)cc2)c2ccc(Cl)cc12 [Compound 320]" recorded_measurement="1000 to 2500 nM"
compound="Cc1ccc(CCNC(=O)c2cn(Cc3ccc(Cl)cc3)c3ccccc23)cn1 [Compound 151]" recorded_measurement="< 100 nM"
compound="Cn1nccc1Cn1nc(C(=O)NCCc2nnc3ccccn23)c2ccccc21 [Compound 515]" recorded_measurement="> 2500 nM"
compound="CN(C)c1cccc(Cn2nc(C(=O)NCCc3nnc4ccccn34)c3ccccc32)c1 [Compound 451]" recorded_measurement="100 to 500 nM"
compound="O=C(NCCc1nnc2ccccn12)c1nn(Cc2ccc(Cl)cc2)c2cc(Br)ccc12 [Compound 550]" recorded_measurement="100 to 500 nM"

Now consider the entry below.
[ask] Query (compound): O=C(CNC(=O)c1nn(Cc2ccc(Cl)cc2)c2ccccc12)c1cccnc1 [Compound 132] ; field requested: IC50
[reply] 100 to 500 nM

---

TARGET DESC: human MRGPR X4 (Homo sapiens, UniProt Q96LA9)
Construct: expressed in transfected cells
Sequence (Q96LA9 whole entry): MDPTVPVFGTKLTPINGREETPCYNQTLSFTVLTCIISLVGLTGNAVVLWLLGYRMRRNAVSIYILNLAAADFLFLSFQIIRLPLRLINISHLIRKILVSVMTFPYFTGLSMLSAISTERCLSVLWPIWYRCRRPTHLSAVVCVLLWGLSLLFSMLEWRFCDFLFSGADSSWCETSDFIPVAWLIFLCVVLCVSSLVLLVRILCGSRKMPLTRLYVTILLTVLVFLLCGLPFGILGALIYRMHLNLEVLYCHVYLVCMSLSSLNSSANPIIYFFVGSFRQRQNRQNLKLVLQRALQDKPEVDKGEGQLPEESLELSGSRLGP
ASSAY PROCEDURE: MRGPR X4 antagonist activity, IP-One Gq HTRF assay in stably transfected HEK cells
Type: cell-based
pIC50: −log10 of the molar value.
Measured pIC50, listed per entry for reference.

Worked cases, answers included:
compound=CCn1c(Cn2nc(C(=O)NCCc3nnc4ccccn34)c3ccccc32)nc2ccccc21 recorded_measurement="6.00 to 6.30"
compound=COc1ccc2nc(Cn3nc(C(=O)NCCc4nnc5ccccn45)c4ccccc43)[nH]c2c1 recorded_measurement="6.00 to 6.30"
compound=COc1ccc(CCNC(=O)c2cn(Cc3ccc(Cl)cc3)c3ccccc23)cn1 recorded_measurement="6.30 to 7.00"
compound=COc1ccc(-c2nc(Cn3nc(C(=O)NCCc4nnc5ccccn45)c4ccccc43)cs2)cc1 recorded_measurement="6.00 to 6.30"
compound=O=C(NCCc1nnc2ccccn12)c1nn(Cc2ccc(C3CC3)cc2)c2ccccc12 recorded_measurement="> 7.00"
compound=Cc1occc1Cn1nc(C(=O)NCCc2nnc3ccccn23)c2ccccc21 recorded_measurement="< 5.60"

[ask] Query (compound): Cc1c(Cn2nc(C(=O)NCCc3nnc4ccccn34)c3ccccc32)cccc1-c1ccccc1 ; field requested: pIC50
[reply] 6.30 to 7.00

[ask] Query (compound): CC(c1ccc(Cl)cc1)n1nc(C(=O)NCCc2nc3c(s2)CCCC3)c2ccccc21 (centres unmarked) ; field requested: pIC50
[reply] 5.60 to 6.00
